# System: compound 48/80-induced lethality
# assay.details: Protection of rats from compound 48/80-induced lethality
# Format: in vivo, rat (male, inbred Wistar strain)
# protocol.conditions: Rattus norvegicus, 4 h, read-out: compound 48/80 lethality test in rats-ED50, dose protecting 50% of animals; subcutaneous or oral, 1 h before compound 48/80 0.5 mg/kg i.v.; survival after 4 h
property.label: ED50 (mg/kg)
The answer is to be given in mg/kg; state only the numeric part.

Observe how each entry below is paired with its result.
[[record]]
compound = "Nc1ccc(Cn2c(NC3CCN(CCNc4nccs4)CC3)nc3ccccc32)cc1 [Compound 35]"
property_label = "ED50"
unit_text = "mg/kg"
value_reported = 0.31

[[record]]
compound = "Fc1ccc(Cn2c(NC3CCN(CCNc4nccs4)CC3)nc3cccnc32)cc1 [Compound 17]"
property_label = "ED50"
unit_text = "mg/kg"
value_reported = 0.02

[[record]]
compound = "O=C(NCCN1CCC(Nc2nc3ccccc3n2Cc2ccc(F)cc2)CC1)c1cc2ccccc2[nH]1 [Compound 76]"
property_label = "ED50"
unit_text = "mg/kg"
value_reported = 0.16

[[record]]
compound = "CN(CCN1CCC(Nc2nc3ccccc3n2Cc2ccc(F)cc2)CC1)c1nccs1 [Compound 50]"
property_label = "ED50"
unit_text = "mg/kg"
value_reported = 0.08

[[record]]
compound = "c1ccc2c(c1)nc(NC1CCN(CCNc3nccs3)CC1)n2Cc1cscn1 [Compound 49]"
property_label = "ED50"
unit_text = "mg/kg"
value_reported = 0.04


// query Notebook: pull reported ED50 for compound 48/80-induced lethality, entry CNC(=O)N(CCN1CCC(Nc2nc3ccccc3n2Cc2ccc(F)cc2)CC1)c1nccs1 [Compound 103]
// result 0.08

// query Hi! What's the reported ED50 for O=C(c1ccccc1)N(CCN1CCC(Nc2nc3ccccc3n2Cc2ccc(F)cc2)CC1)c1nccs1 [Compound 100] on compound 48/80-induced lethality?
// result 0.31

// query // lookup ED50 | system=compound 48/80-induced lethality | key= O=[N+]([O-])c1ccc(Cn2c(NC3CCN(CCNc4nccs4)CC3)nc3ccccc32)cc1 [Compound 43]
// result 0.31

// query Can you look up ED50 on compound 48/80-induced lethality for Fc1ccc(Cn2ccnc2NCCN2CCC(Nc3nc4ccccc4n3Cc3ccc(F)cc3)CC2)cc1 [Compound 82] ?
// result 0.16

// query // fetch compound 48/80-induced lethality ED50 for CC(c1ccc(Cl)cc1)n1ccnc1NCCN1CCC(Nc2nc3ccccc3n2Cc2ccc(F)cc2)CC1 (centres unmarked) [Compound 106]
// result 0.63

// query Requested read-out ED50, target or system compound 48/80-induced lethality, entry Cc1csc(NCCN2CCC(Nc3nc4ccccc4n3Cc3ccc(F)cc3)CC2)n1 [Compound 85]
// result 0.08

###

# Test system: compound 48/80-induced lethality
# assay.details: Protection of rats from compound 48/80-induced lethality
# Format: in vivo, rat (male, inbred Wistar strain)
# protocol.conditions: Rattus norvegicus, 4 h, read-out: compound 48/80 lethality test in rats-ED50, dose protecting 50% of animals; subcutaneous or oral, 1 h before compound 48/80 0.5 mg/kg i.v.; survival after 4 h
property.label: ED50 (mg/kg)
Report the figure in mg/kg without appending any unit label.

Solved cases (5 shown):
[[record]]
compound = "N=C(NCCN1CCC(Nc2nc3ccccc3n2Cc2ccc(F)cc2)CC1)Nc1nc2ccccc2[nH]1"
assay_system = "compound 48/80-induced lethality"
property_label = "ED50"
value_reported = 0.31

[[record]]
compound = "c1csc(Cn2c(NC3CCN(CCNc4nccs4)CC3)nc3ccccc32)c1"
assay_system = "compound 48/80-induced lethality"
property_label = "ED50"
value_reported = 0.08

[[record]]
compound = "Cc1sc(N)nc1CCN1CCC(Nc2nc3ccccc3n2Cc2ccc(F)cc2)CC1"
assay_system = "compound 48/80-induced lethality"
property_label = "ED50"
value_reported = 0.08

[[record]]
compound = "COc1ccc(Cn2c(NC3CCN(CCNc4nccs4)CC3)nc3ccccc32)cc1"
assay_system = "compound 48/80-induced lethality"
property_label = "ED50"
value_reported = 0.31

[[record]]
compound = "CN(c1nc2ccccc2n1Cc1ccc(F)cc1)C1CCN(CCNc2nccs2)CC1"
assay_system = "compound 48/80-induced lethality"
property_label = "ED50"
value_reported = 0.02


// query Given the entry `Clc1ccc(Cn2c(NC3CCN(CCNc4nccs4)CC3)nc3ccccc32)cc1` , report its measured ED50.
// result 0.31

// query Look up ED50 for this compound: `Fc1ccc(Cn2c(NC3CCN(CCNc4ncc[nH]4)CC3)nc3ccccc32)cc1`
// result 0.02

// query Would you mind telling me what ED50 value was observed for `Fc1ccc(Cn2c(NC3CCN(CCNc4nccs4)CC3)nc3ccncc32)cc1` ?
// result 0.08

// query Find the recorded ED50 belonging to `CC(=O)N(CCN1CCC(Nc2nc3ccccc3n2Cc2ccc(F)cc2)CC1)c1nccs1` and report it.
// result 0.16

// query So what's the measured ED50 for this one? `Fc1ccc(Cn2c(NC3CCN(CCNc4nccn4-c4ncccn4)CC3)nc3ccccc32)cc1`
// result 0.16

// query Entry under review: `O=[N+]([O-])c1cnc(NCCN2CCC(Nc3nc4ccccc4n3Cc3ccc(F)cc3)CC2)s1` . Reported ED50?
// result 0.63

// query ED50 lookup needed for `Fc1ccc(Cn2c(NC3CCN(C4CCN(c5nccs5)CC4)CC3)nc3ccccc32)cc1` , thanks.
// result 1.25

###

# Tested on: effects of serotonin in the gastric lesion test
# assay.details: Antagonistic activity on the effects of serotonin in the gastric lesion test (lesions induced by compound 48/80)
# Assay type: in vivo, rat (male, Wistar inbred strain)
# protocol.conditions: Rattus norvegicus; read-out: gastric lesion test ED50
# Excerpt: The compounds of formula (I) and the pharmaceutically acceptable acid addition salts thereof are also potent serotonin-antagonists. […] Four hours after the intravenous injection of compound 48/80, the rats were decapitated and the stomachs were removed. […] The macroscopic lesions were scored from 0 to +++, 0 corresponding to the complete absence of visible lesions and the highest score corresponding to reddish rough patches covering more than half the glandular area.
Counter-ions that a name gives are not always drawn.
# ED50 per record follows
Quick note: give the figure in mg/kg, leave out the unit.

The following compounds have reported results that may help.
[[record]]
compound = "Cc1ccc(Cn2c(NC3CCN(CCNc4nccs4)CC3)nc3ccccc32)cc1"
value_reported = 0.63

[[record]]
compound = "Fc1ccc(Cn2c(NC3CCN(CCOc4nccs4)CC3)nc3ccccc32)cc1"
value_reported = 0.63

[[record]]
compound = "c1ccc2c(c1)nc(NC1CCN(CCNc3nccs3)CC1)n2Cc1cscn1"
value_reported = 0.63

[[record]]
compound = "Cc1nnc(NCCN2CCC(Nc3nc4ccccc4n3Cc3ccc(F)cc3)CC2)s1"
value_reported = 0.31

[[record]]
compound = "CC(=O)N(CCN1CCC(Nc2nc3ccccc3n2Cc2ccc(F)cc2)CC1)c1nccs1"
value_reported = 1.25


// query Which ED50 reading was recorded for the compound `Fc1ccc(Cn2c(NC3CCN(CCNc4nccs4)CC3)nc3cccnc32)cc1` ?
// result 0.16

// query Could you tell me which ED50 is on file for `Fc1ccc(Cn2c(NC3CCN(CCCCCNc4nccs4)CC3)nc3ccccc32)cc1` ?
// result 0.31

// query // returns reported ED50 for input N=C(N)Nc1nc(CCN2CCC(Nc3nc4ccccc4n3Cc3ccc(F)cc3)CC2)cs1 [Compound 90, trihydrobromide]
// result 0.31

###

# Tested on: effects of serotonin in the gastric lesion test
# assay.details: Antagonistic activity on the effects of serotonin in the gastric lesion test (lesions induced by compound 48/80)
# Assay type: in vivo, rat (male, Wistar inbred strain)
# protocol.conditions: Rattus norvegicus; read-out: gastric lesion test ED50
# Description: The compounds of formula (I) and the pharmaceutically acceptable acid addition salts thereof are also potent serotonin-antagonists. […] Four hours after the intravenous injection of compound 48/80, the rats were decapitated and the stomachs were removed. […] The macroscopic lesions were scored from 0 to +++, 0 corresponding to the complete absence of visible lesions and the highest score corresponding to reddish rough patches covering more than half the glandular area.
Overview of recorded ED50 for various compounds
Report only the number, with the unit mg/kg understood.

Sample records with ED50:
[[record]]
smi = "c1coc(Cn2c(NC3CCN(CCNc4nccs4)CC3)nc3ccccc32)c1"
assay_system = "effects of serotonin in the gastric lesion test"
property_label = "ED50"
value_reported = 0.63

[[record]]
smi = "Cc1ccccc1Cn1c(NC2CCN(CCNc3nccs3)CC2)nc2ccccc21"
assay_system = "effects of serotonin in the gastric lesion test"
property_label = "ED50"
value_reported = 0.63

[[record]]
smi = "O=C(c1ccccc1)N(CCN1CCC(Nc2nc3ccccc3n2Cc2ccc(F)cc2)CC1)c1nccs1"
assay_system = "effects of serotonin in the gastric lesion test"
property_label = "ED50"
value_reported = 0.63

[[record]]
smi = "Cc1nc[nH]c1CN1CCC(Nc2nc3ccccc3n2Cc2ccc(F)cc2)CC1"
assay_system = "effects of serotonin in the gastric lesion test"
property_label = "ED50"
value_reported = 0.31

[[record]]
smi = "c1csc(Cn2c(NC3CCN(CCNc4nccs4)CC3)nc3ccccc32)c1"
assay_system = "effects of serotonin in the gastric lesion test"
property_label = "ED50"
value_reported = 0.02

[[record]]
smi = "CC(C)n1ccnc1NCCN1CCC(Nc2nc3ccccc3n2Cc2ccc(F)cc2)CC1.O"
assay_system = "effects of serotonin in the gastric lesion test"
property_label = "ED50"
value_reported = 0.31

[[record]]
smi = "Fc1ccc(Cn2c(NC3CCN(C4CCN(c5nccs5)CC4)CC3)nc3ccccc32)cc1"
assay_system = "effects of serotonin in the gastric lesion test"
property_label = "ED50"
value_reported = 0.63

[[record]]
smi = "Cc1coc(NCCN2CCC(Nc3nc4ccccc4n3Cc3ccc(F)cc3)CC2)n1"
assay_system = "effects of serotonin in the gastric lesion test"
property_label = "ED50"
value_reported = 0.63

[[record]]
smi = "Fc1ccc(Cn2c(NC3CCN(CCNc4nc(-c5ccccn5)cs4)CC3)nc3ccccc32)cc1"
assay_system = "effects of serotonin in the gastric lesion test"
property_label = "ED50"
value_reported = 0.63


# context switch: different compound, same ED50
// query Using the record for `CNc1nc(CCN2CCC(Nc3nc4ccccc4n3Cc3ccc(F)cc3)CC2)cs1` , report its ED50.
// result 0.16

All values here come from patent US4634704A.
